Target: T1, Human Activin A Fc (human, UniProt P03970 309-424 (pig entry))
T1 construct: also called human Activin A-Fc fusion; human Activin A-Fc antigen; not shown: Fc part
T1 sequence: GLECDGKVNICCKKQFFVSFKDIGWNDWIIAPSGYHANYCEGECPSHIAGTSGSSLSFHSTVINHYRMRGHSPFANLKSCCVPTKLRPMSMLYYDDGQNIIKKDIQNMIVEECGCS
Assay: Octet BLI, IgG, avid
Endpoint label: Kd (pM)
Reply numerically in pM, unit not repeated.

[
  {
    "Binder": "anti-Activin A antibody Clone E (IgG) (antibody, V domains shown, IgG format; also called Antibody E) VH: QVQLVQSGAEVKKPGASVKVSCKASGYTFHGYNMHWVRQAPGQGLEWMGSINPYSGYTIYAQKFQGRVTMTRDTSISTAYMELSRLRSDDTAVYYCARARDIAAAGLGAFDYWGQGTLVTVSS VL: EIVLTQSPGTLSLSPGERATLSCRASQSVRSSYLAWYQQKPGQAPRLLIYGASSRATGIPDRFSGSGSGTDFTLTISRLEPEDFAVYYCQQYVSYPRTFGGGTKVEIKR",
    "Recorded number": 551
  },
  {
    "Binder": "anti-Activin A antibody Clone P (IgG) (antibody, V domains shown, IgG format; also called Antibody P) VH: QVQLVQSGAEVKKPGSSVKVSCKASGGTFDDYAISWVRQAPGQGLEWMGGIIPRFGIANYAQKFQGRVTITADESTSTAYMELSSLRSEDTAVYYCARPPSSGSDWGQGTLVTVSS VL: DIQMTQSPSSVSASVGDRVTITCRASQGIDSWLAWYQQKPGKAPKLLIYAASSLQSGVPSRFSGSGSGTDFTLTISSLQPEDFATYYCQQVHSFPITFGGGTKVEIKR",
    "Recorded number": 1280
  },
  {
    "Binder": "anti-Activin A antibody Clone F (IgG) (antibody, V domains shown, IgG format; also called Antibody F) VH: QVQLVQSGAEVKKPGASVKVSCKASGYTFTGYHIHWVRQVPGQGLEWMGVISAYSGDTNYAQKLQGRVTMTTDTSTSTAYMELRSLRSDDTAVYYCARARDIAALGLGAFDYWGQGTLVTVSS VL: EIVLTQSPATLSVSPGERATLSCRASQSVSSNLAWYQQKPGQAPRLLIYGASDRATGIPARFSGSGSGTEFTLTISSLQSEDFAVYYCIQYSNYPRTFGGGTKVEIKR",
    "Recorded number": 492
  }
]

Kindly review the next binder as well.
Input line: Request the reported Kd associated with anti-Activin A antibody Clone C (IgG) (antibody, V domains shown, IgG format) VH: QVQLVQSGAEVKKPGASVKVSCKASGYTFPGYHMHWVRQAPGQGLEWMGVINPSSGDTNYAQKFQGRVTMTRDTSISTAYMELSRLRSDDTAVYYCARARDIAALGLGAFDYWGQGTLVTVSS VL: EIVLTQSPGTLSLSPGERATLSCRASQSVSSSYLAWYQQKPGQAPRLLIYGASSRAGGIPDRFSGSGSGTDFTLTISRLEPEDFAVYYCQQYVAYPRTFGGGTKVEIKR
Output line: 477
